Where these numbers come from: the supplement of paper PMC10567573

We begin with a simple list: items and their reported protein stability index.
B1: LPCAT4 (parent)
chain: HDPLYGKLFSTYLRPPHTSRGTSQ

variants of: B1; assay: protein stability index of a GFP-peptide fusion (GPS, HEK-293T) (PSI 1-6); higher = more stable; settings: c terminus: a fixed tail appended;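 also: lentivirally expressed fusions sorted by FACS into six bins by GFP to DsRed ratio, PSI derived from sequencing read proportions per bin multiplied by bin number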
readout-name: protein stability index

[
  {
    "mutations": "G21W",
    "reported": 2
  },
  {
    "mutations": "K7N",
    "reported": 3.36
  },
  {
    "mutations": "G6F",
    "reported": 1.58
  },
  {
    "mutations": "Y5G",
    "reported": 2.76
  },
  {
    "mutations": "L13V",
    "reported": 3.72
  },
  {
    "mutations": "P15Y",
    "reported": 2.52
  },
  {
    "mutations": "T18I",
    "reported": 2.52
  },
  {
    "mutations": "Q24K",
    "reported": 2.56
  },
  {
    "mutations": "G6M",
    "reported": 1.7
  },
  {
    "mutations": "S23Y",
    "reported": 2.19
  },
  {
    "mutations": "Q24N",
    "reported": 2.78
  },
  {
    "mutations": "D2C",
    "reported": 2.28
  },
  {
    "mutations": "L4E",
    "reported": 3.46
  },
  {
    "mutations": "H1N",
    "reported": 3.2
  },
  {
    "mutations": "D2N",
    "reported": 2.1
  },
  {
    "mutations": "R14F",
    "reported": 2.81
  },
  {
    "mutations": "L4D",
    "reported": 3.74
  },
  {
    "mutations": "L4P",
    "reported": 3.28
  },
  {
    "mutations": "T11A",
    "reported": 4.05
  },
  {
    "mutations": "L8M",
    "reported": 3.73
  },
  {
    "mutations": "Q24Y",
    "reported": 2.07
  },
  {
    "mutations": "G6E",
    "reported": 3.19
  },
  {
    "mutations": "P16D",
    "reported": 3.37
  },
  {
    "mutations": "P15W",
    "reported": 2.37
  },
  {
    "mutations": "H1M",
    "reported": 2.98
  },
  {
    "mutations": "G21K",
    "reported": 2.55
  },
  {
    "mutations": "Q24P",
    "reported": 2.43
  },
  {
    "mutations": "P16A",
    "reported": 2.2
  },
  {
    "mutations": "P16F",
    "reported": 1.77
  },
  {
    "mutations": "Q24M",
    "reported": 2.45
  },
  {
    "mutations": "H17E",
    "reported": 3.22
  },
  {
    "mutations": "D2A",
    "reported": 2.37
  },
  {
    "mutations": "Q24W",
    "reported": 2.13
  },
  {
    "mutations": "Y12N",
    "reported": 3.4
  },
  {
    "mutations": "P16G",
    "reported": 3.01
  },
  {
    "mutations": "Y5Q",
    "reported": 3.82
  },
  {
    "mutations": "F9A",
    "reported": 4.32
  },
  {
    "mutations": "K7H",
    "reported": 2
  },
  {
    "mutations": "T11L",
    "reported": 2.39
  },
  {
    "mutations": "P15Q",
    "reported": 2.47
  },
  {
    "mutations": "T22V",
    "reported": 2.12
  },
  {
    "mutations": "S23R",
    "reported": 2.45
  },
  {
    "mutations": "R14I",
    "reported": 3.17
  },
  {
    "mutations": "R14T",
    "reported": 3.09
  },
  {
    "mutations": "P16C",
    "reported": 2.26
  },
  {
    "mutations": "S19A",
    "reported": 2.72
  },
  {
    "mutations": "F9G",
    "reported": 4.09
  },
  {
    "mutations": "S23D",
    "reported": 3.17
  },
  {
    "mutations": "R20G",
    "reported": 2.83
  },
  {
    "mutations": "F9P",
    "reported": 3.65
  },
  {
    "mutations": "P3D",
    "reported": 3.02
  },
  {
    "mutations": "R14E",
    "reported": 3.4
  },
  {
    "mutations": "L8P",
    "reported": 4.26
  },
  {
    "mutations": "P3G",
    "reported": 2.35
  },
  {
    "mutations": "S19V",
    "reported": 2.55
  },
  {
    "mutations": "T18G",
    "reported": 2.41
  },
  {
    "mutations": "H1G",
    "reported": 2.88
  },
  {
    "mutations": "L8R",
    "reported": 4.27
  },
  {
    "mutations": "G6H",
    "reported": 1.88
  },
  {
    "mutations": "R20Y",
    "reported": 2.3
  },
  {
    "mutations": "G21Q",
    "reported": 2.95
  },
  {
    "mutations": "H17P",
    "reported": 2.99
  },
  {
    "mutations": "S10E",
    "reported": 4.21
  },
  {
    "mutations": "L4Q",
    "reported": 2.03
  },
  {
    "mutations": "P15C",
    "reported": 2.11
  }
]
